Where do these numbers come from? They come from paper PMC11350758.

Catalogue of compounds with associated HC50
# Test system: red blood cells
# assay summary: Hemolysis assay
# Format: cell-based, Sheep
# condition info: concentration required to lyse 50% of red blood cells; 37 °C, 1 h
Answer in µg/mL, number only, no unit symbol.

These recorded examples may help you get a feel for the data.
INSERT INTO results (compound, readout_label, unit_annotation, test_value) VALUES
  ('CC(=O)c1ccc2c(c1OCCCN(C)CC(C)(C)CN(C)C)C=CC(C)(CCC=C(C)C)O2 (stereo not shown)', 'HC50', 'µg/mL', 183.1),
  ('CC(=O)c1c(OCCC[n+]2ccccc2)c2c(c3c1OC(C)(CCC=C(C)C)C=C3)OC(C)(CCC=C(C)C)C=C2 (stereo not shown)', 'HC50', 'µg/mL', 26.6),
  ('CNCCN(C)CCCOc1c2c(c3c(c1C(C)=O)OC(C)(CCC=C(C)C)C=C3)OC(C)(CCC=C(C)C)C=C2 (stereo not shown)', 'HC50', 'µg/mL', 40.3),
  ('CC(=O)c1ccc2c(c1OCCCNCCCN1CCCC1)C=CC(C)(CCC=C(C)C)O2 (stereo not shown)', 'HC50', 'µg/mL', 84.7),
  ('CC[N+](CC)(CC)CCCOc1c2c(c3c(c1C(C)=O)OC(C)(CCC=C(C)C)C=C3)OC(C)(CCC=C(C)C)C=C2 (stereo not shown)', 'HC50', 'µg/mL', 40.4);

Task item: Give the measured HC50 of CCN(CC)CCCOc1c2c(c3c(c1C(C)=O)OC(C)(CCC=C(C)C)C=C3)OC(C)(CCC=C(C)C)C=C2 (stereo not shown) .
Reply: 187.6

Task item: Which HC50 value belongs to CC(=O)c1c(OCCCNCCCN2CCN(C)CC2)c2c(c3c1OC(C)(CCC=C(C)C)C=C3)OC(C)(CCC=C(C)C)C=C2 (stereo not shown) ?
Reply: 98.0

Task item: If you can, please state the reported HC50 value of CCN(CC)CCCOc1c(C(C)=O)ccc2c1C=CC(C)(CCC=C(C)C)O2 (stereo not shown) .
Reply: 324.1

Task item: Which measured HC50 value corresponds to CCN(CC)CCCNCCCOc1c2c(c3c(c1C(C)=O)OC(C)(CCC=C(C)C)C=C3)OC(C)(CCC=C(C)C)C=C2 (stereo not shown) ?
Reply: 34.9

Task item: Look up HC50 for this compound: CC(=O)c1ccc2c(c1OCCCNCCN(C)C)C=CC(C)(CCC=C(C)C)O2 (stereo not shown)
Reply: 127.7

Task item: Which HC50 value is on record for CCNCCCOc1c(C(C)=O)ccc2c1C=CC(C)(CCC=C(C)C)O2 (stereo not shown) ?
Reply: 118.4

Task item: Name the recorded HC50 for CC(=O)c1ccc2c(c1OCCCN1CCN(C(C)=O)CC1)C=CC(C)(CCC=C(C)C)O2 (stereo not shown) .
Reply: 62.3

Task item: Would you mind telling me what HC50 value was observed for CC(=O)c1ccc2c(c1OCCCN1CC(C)OC(C)C1)C=CC(C)(CCC=C(C)C)O2 (stereo not shown) ?
Reply: 746.5

Task item: I have this compound here, CC[N+](CC)(CC)CCCOc1c(C(C)=O)ccc2c1C=CC(C)(CCC=C(C)C)O2 (stereo not shown) , and I need its recorded HC50.
Reply: 571.5
